Literature roundup of Aurora kinase A (Homo sapiens, UniProt O14965) data, read-out log10 IC50.
Answers are given as log10 of IC50 in nM.

Reference set, count: 10
O=C(O)CCc1c(/C=C2\C(=O)Nc3ccc(NS(=O)(=O)c4cc(Cl)cc(Cl)c4)cc32)[nH]c2c1C(=O)CCC2
2.18
CC(C)(NC(=O)c1cc2c(NC(=O)c3ccccc3NC(=O)c3ccc[nH]3)n[nH]c2s1)c1ccccc1
0.78
NC(=O)[C@]1(Cc2cccc(Nc3nccs3)n2)CC[C@@H](Oc2cccc(Cl)c2F)CC1
-0.27
O=C(O)[C@]1(Cc2cccc(Nc3cc[nH]n3)n2)CC[C@@H](Oc2cccc(Cl)c2F)CC1
-0.82
O=C(O)CCc1c(/C=C2\C(=O)Nc3ccc(S(=O)(=O)N4CCOCC4)cc32)[nH]c2c1C(=O)CCC2
1.46
COc1ccc(Nc2nccc(-c3cccc(CN(C)C)c3)n2)cn1
3.89
CN1CCN(c2ccc(C(=O)Nc3n[nH]c4ccc(S(=O)(=O)c5ccccc5)cc34)c(NC(=O)c3ccc[nH]3)c2)CC1
0.95
CC(C)(C)C1CCC(NC(=O)c2ccc(Nc3ncc(Cl)c(Nc4ccccc4NC(=O)C4CC4)n3)cc2)CC1 (stereo not shown)
1.08
O=C(Nc1ccccc1Nc1nc(Nc2ccc(N3CCOCC3)cc2)ncc1[N+](=O)[O-])C1CC1
1.01
CC1(C)CN(c2ccc(-c3oc(-c4ccc(F)c5[nH]ccc45)nc3C(N)=O)cc2)CCN1
1.29

Fill in: log10 IC50 of O=C(c1cccc(C(F)(F)F)c1)N1CCN(Cc2cccc(Nc3ncns3)n2)CC1 is ___ 0.69

Fill in: log10 IC50 of CC(=O)N1CCc2cc(Nc3ncc(Cl)c(Nc4ccccc4C(=O)NC4CC4)n3)ccc21 is ___ 0.32

Fill in: log10 IC50 of CC(C)S(=O)(=O)N[C@H]1COC2C1OC[C@H]2Nc1nc(Nc2cnn(C)c2)ncc1Cl (stereo partly shown) is ___ 1.53

====

pIC50: −log10 of the molar value.
Literature roundup of Aurora kinase A (Homo sapiens) data, read-out pIC50.

Reference set, count: 6
Cc1c(-c2ccnc(Nc3ccc4cn[nH]c4c3)n2)c(C)n2c1C(=O)NCC2
> 6.00
COc1ccc2c(c1)/C(=C\c1ccc3c(-c4ccc(N5CCOCC5)nc4)n[nH]c3c1)C(=O)N2
> 5.30
O=C(NCc1cccnc1)c1cc(-c2[nH]ncc2-c2cc(F)ccc2F)c[nH]1
5.00 to 5.30
COc1ccc(-c2cn[nH]c2-c2c[nH]c(C(=O)NCC3CCCO3)c2)cc1OC (stereo not drawn)
5.00 to 5.30
CC1(C)C(=O)N(CC(=O)NCC(O)CO)c2cc3[nH]c(-c4n[nH]c5ccccc45)nc3cc21 (stereo not drawn)
7.00 to 9.00
Cc1cc(Nc2nn(-c3ccc(C(C)C)cc3)c(=O)c3ccccc23)[nH]n1
7.00 to 9.00

Which measured pIC50 belongs to CC1(C)C(=O)N(CCNC(=O)c2ccccc2)c2cc3[nH]c(-c4n[nH]c5ccccc45)nc3cc21 , tested on Aurora kinase A (Homo sapiens)? 7.00 to 9.00

Which measured pIC50 belongs to O=C(O)CCc1c(/C=C2\C(=O)Nc3ccc(NS(=O)(=O)Cc4ccccc4)cc32)[nH]c2c1C(=O)CCC2 , tested on Aurora kinase A (Homo sapiens)? 7.20

Which measured pIC50 belongs to CC(C)CS(=O)(=O)N[C@H]1COC2C1OC[C@H]2Nc1nc(Nc2cnn(C)c2)ncc1Cl (stereo partly drawn) , tested on Aurora kinase A (Homo sapiens)? 7.70

Which measured pIC50 belongs to Cn1cc(Nc2ncc(Cl)c(NC3COC4C(NS(C)(=O)=O)COC34)n2)cn1 (stereo not drawn) , tested on Aurora kinase A (Homo sapiens)? 7.29

Which measured pIC50 belongs to COc1cc(-c2cnc3[nH]c(=O)n(Cc4cccc5ccccc45)c3n2)cc(OC)c1OC , tested on Aurora kinase A (Homo sapiens)? < 6.00

Which measured pIC50 belongs to Cc1cc(Nc2nn(C(C)C)c(=O)c3cc(N(C)C)ccc23)n[nH]1 , tested on Aurora kinase A (Homo sapiens)? 7.00 to 9.00

Which measured pIC50 belongs to CNC(=O)CCc1cccc(Nc2nccc(-c3c(C)c4n(c3C)CCNC4=O)n2)c1 , tested on Aurora kinase A (Homo sapiens)? > 7.00

Which measured pIC50 belongs to COCCN1C(=O)C(C)(C)c2cc3nc(-c4n[nH]c5ccccc45)[nH]c3cc21 , tested on Aurora kinase A (Homo sapiens)? 7.00 to 9.00

Which measured pIC50 belongs to Cc1cc(NC(=O)Nc2ccc(-c3ccc4c(-c5cnn(C)c5)n[nH]c4c3)cc2)no1 , tested on Aurora kinase A (Homo sapiens)? 6.52

Which measured pIC50 belongs to CC(O)Cn1cc(Nc2ncc(Cl)c(NC3CC4CN(S(=O)(=O)CC5CC5)CC4C3)n2)cn1 (stereo not drawn) , tested on Aurora kinase A (Homo sapiens)? 8.00

Which measured pIC50 belongs to Cc1cc(Nc2nccc(-c3c(C)c4n(c3C)CCNC4=O)n2)ccc1S(=O)(=O)N(C)CCCN(C)C , tested on Aurora kinase A (Homo sapiens)? > 5.00

Which measured pIC50 belongs to COc1ccc(-c2cnc3[nH]c(=O)n(Cc4ccccc4)c3n2)cc1C=O , tested on Aurora kinase A (Homo sapiens)? < 6.00

Which measured pIC50 belongs to CC(c1cccc(Nc2cc[nH]n2)n1)N1CCN(C(=O)c2cccc(Cl)c2F)CC1 (stereo not drawn) , tested on Aurora kinase A (Homo sapiens)? 7.64

Which measured pIC50 belongs to CC1(C)CC(=O)Nc2cc3nc(-c4cc(C5CC5)[nH]n4)[nH]c3cc21 , tested on Aurora kinase A (Homo sapiens)? 6.30 to 8.00

Which measured pIC50 belongs to Cc1c(-c2ccnc(Nc3ccc(F)cc3)n2)c(C)n2c1C(=O)NCC2 , tested on Aurora kinase A (Homo sapiens)? > 6.00

Which measured pIC50 belongs to O=C(O)CCc1c(/C=C2\C(=O)Nc3ccccc32)[nH]c2c1C(=O)CCC2 , tested on Aurora kinase A (Homo sapiens)? 6.68

====

Literature roundup of Aurora kinase A (Homo sapiens, UniProt O14965) data, read-out IC50.
Entries whose IC50 is below 30 nM take Y; entries at or above 30 nM take N.

C=CC(=O)NC1CCN(S(=O)(=O)c2cccc(Nc3ncc4c(n3)N(C)c3ccc(C)cc3C(=O)N4C)c2)CC1
N
COc1cc2c(cc1Nc1ncc(Cl)c(Nc3cccc4c3C(=O)NC4)n1)CNCC21CC1
N
O=C(c1cccc(Cl)c1F)N1CCN(Cc2cccc(Nc3ncns3)n2)CC1
Y
Cc1cc(Nc2nc(CC3(c4noc(C)n4)CCN(C(=O)c4cccc(Cl)c4F)CC3)ccc2F)n[nH]1
Y
c1cc(Nc2nccc(-c3nccs3)n2)cc(OCC2CCCCC2)c1
N
O=C1NC2(CCNC2)CN1c1cccc(-c2cnc3[nH]cc(C4CC4)c3c2Cl)c1 (stereo not drawn)
N
CCCS(=O)(=O)N=S(C)(=O)c1ccc2cc1NCCCCNc1nc(ncc1Br)N2 (racemic)
N
Cn1cc(Nc2ncc(Cl)c(N[C@@H]3COC4C3OC[C@@H]4NS(=O)(=O)CC3CCC3)n2)cn1 (stereo partly drawn)
Y

# ---- query compound ----
# check: IC50 < 30 nM for COc1cc(CN(C)C)ccc1Nc1ncc(Cl)c(Nc2ccc(F)c3c2C(=O)NC3)n1 N

====

pIC50: −log10 of the molar value.
Literature roundup of Aurora kinase A (Homo sapiens) data, read-out pIC50.

Reference set, count: 6
Cc1cc(-c2nc3cc4c(cc3[nH]2)N(C)C(=O)C4(C)C)n[nH]1
6.30 to 8.00
Fc1c(Cl)cccc1O[C@H]1CC[C@](Cc2cccc(Nc3cc[nH]n3)n2)(c2n[nH]c(=S)o2)CC1
9.92
CCC(C)c1ccc(-n2nc(Nc3cc(C)n[nH]3)c3ccccc3c2=O)cc1 (stereo not shown)
7.00 to 9.00
Cn1cc(-c2n[nH]c3cc(-c4ccc(NC(=O)Nc5ccc(OC(F)(F)F)cc5)cc4)ccc23)cn1
< 4.90
Cc1c(-c2ccnc(Nc3ccc(CC(=O)O)cc3)n2)c(C)n2c1C(=O)NCC2
> 7.00
CC(=O)N1CC(C)(C)c2cc(Nc3ncc(Cl)c(Nc4ccccc4C(=O)NC4CC4)n3)ccc21
7.61

Fill in: pIC50 of CCN1CCn2c(C)c(-c3ccnc(Nc4cccc(-c5ccnc(C)n5)c4)n3)c(C)c2C1=O is ___ > 6.00

Fill in: pIC50 of N#Cc1ccc(N2CCC(Nc3nc(Nc4ccn5c(C(F)F)nnc5c4)ncc3Cl)CC2)nc1 is ___ 6.20

Fill in: pIC50 of Nc1ncnc2c1c(-c1cccc(OC[C@@H]3CCCO3)c1F)cn2[C@H]1C[C@@H](CN2CC[S+]([O-])CC2)C1 is ___ < 5.00

Fill in: pIC50 of O=C1Nc2c(F)cccc2/C1=C\c1ccc2cn[nH]c2c1 is ___ > 5.30

Fill in: pIC50 of Cc1c(-c2ccnc(Nc3ccc(Br)cc3)n2)c(C)n2c1C(=O)NCC2 is ___ > 6.00

Fill in: pIC50 of O=C(O)[C@]1(Cc2cccc(Nc3nccs3)n2)CC[C@@H](S(=O)(=O)c2cccc(Cl)c2Cl)CC1 is ___ 9.82

Fill in: pIC50 of O=C(O)[C@]1(Cc2cccc(Nc3cc[nH]n3)n2)CC[C@@H](Oc2cccc(C(F)(F)F)c2F)CC1 is ___ 9.80

Fill in: pIC50 of O=C(O)CCc1c(/C=C2\C(=O)Nc3ccc(NS(=O)(=O)c4ccc(F)cc4)cc32)[nH]c2c1C(=O)CCC2 is ___ 7.34

Fill in: pIC50 of COc1cc(-c2cnc3[nH]c(=O)n(Cc4ccc(Cl)cc4)c3n2)cc(OC)c1OC is ___ 6.00 to 6.30

Fill in: pIC50 of Cc1c(-c2ccnc(Nc3ccc4sc(C(=O)O)cc4c3)n2)c(C)n2c1C(=O)NCC2 is ___ > 7.00
